Tested on: Human papillomavirus type 1a E7 protein (residues 1-88)
Assay: HPV1a E7 small-molecule binders, primary screen, biochemical, small-molecule microarray, residues 1-88, 635 nm (AID 1129)
Conditions: small-molecule microarray binding, fluorescence 635 nm; higher = more signal
measured endpoint: composite z-score

[[record]]
compound = "COC(=O)[C@@H]1CC[C@H](C)[C@@H](c2ccc(C)cc2)N1C(=O)c1ccc(C=NOC[C@@H](C)[C@H](OCc2ccccc2)C(C)C)cc1"
assay_result = 0.673

[[record]]
compound = "CCOC(=O)[C@H](CC(C)C)NC(=O)CCC1CC(OC(=O)NCc2cccc3ccccc23)CC2(CCCC(COC(=O)NCc3cccc(C(F)(F)F)c3)O2)O1 (some centres undefined)"
assay_result = 0.492

[[record]]
compound = "C=C(C)C(=O)OCC1CN2[C@@H](CC[C@@H](C)[C@@H]2c2ccc(Br)cc2)C(=O)O1 (some centres undefined)"
assay_result = 0.281

[[record]]
compound = "O=C1C[C@@H](O)[C@@H](O)[C@@H]2[C@@H]3C(=O)N(C[C@@H]4CCCO4)C(=O)[C@@H]3CC[C@@H]12"
assay_result = 0.476

